I'd be grateful if you could share measured PTP1B Inhib PTP1B. % Inhib for these entries.
Molecular target: human PTP1B (Homo sapiens)
Construct: human PTP1B (amino acid residues 1-321); made in house; host or cells: E. coli BL21(DE3)
Assay: PTP1B assay, pNPP hydrolysis, assayed exactly as for PTP1
Assay type: biochemical
Details: Conc 1 uM, Table 2
Give bare numbers, in %.

# PTP1B Inhib PTP1B. % Inhib (compound: CCCCCNC(=O)C(Cc1ccc(OC(COO)COO)cc1)NC(=O)C(CSCc1ccccc1)NC(=O)OC(C)(C)C (centres unmarked) ) is 3

# PTP1B Inhib PTP1B. % Inhib (compound: CCCCCNC(=O)C(Cc1ccc(OCCOO)c(COO)c1)NC(=O)C(Cc1ccccc1)NC(=O)CCC(=O)O (centres unmarked) ) is 66

# PTP1B Inhib PTP1B. % Inhib (compound: CCCCCNC(=O)C(Cc1ccc(OC(COO)COO)cc1)NC(=O)N(Cc1ccccc1)Cc1ccccc1 (centres unmarked) ) is 14

Items follow; give PTP1B Inhib PTP1B. % Inhib for each.
1. CCCCCNC(=O)C(Cc1ccc(OCCOO)c(COO)c1)NC(=O)C(Cc1ccc(O)cc1)NC(=O)OC(C)(C)C (centres unmarked)
2. CCCCCNC(=O)C(Cc1ccc(OCCOO)c(COO)c1)NC(=O)C(Cc1ccccc1)NC(=O)OC(C)(C)C (centres unmarked) [drawing 189]

*A*
1: 28; 2: 2

---

Target: human PTP1B (Homo sapiens)
Construct: human PTP1B (amino acid residues 1-321); made in house; host or cells: E. coli BL21(DE3)
Assay: PTP1B assay, pNPP hydrolysis, assayed exactly as for PTP1
Format: biochemical
Conditions: Conc 10 uM, Table 2
measured-quantity: PTP1B Inhib PTP1B. % Inhib (%)
Answers are plain numbers, in %.

# PTP1B Inhib PTP1B. % Inhib (compound: CCCCCNC(=O)C(Cc1ccc(OC(COO)COO)cc1)NC(=O)N1CCN(C(=O)OC(C)(C)C)CC1 (stereo not shown) ) is 63

# PTP1B Inhib PTP1B. % Inhib (compound: CCCCCNC(=O)C(Cc1ccc(OC(COO)COO)cc1)NC(=O)C(CCSC)NC(=O)OC(C)(C)C (stereo not shown) ) is 30

# PTP1B Inhib PTP1B. % Inhib (compound: CCCCCNC(=O)C(Cc1ccc(OCCOO)c(COO)c1)NC(=O)C(Cc1ccccc1)NC(=O)OC(C)(C)C (stereo not shown) [drawing 189] ) is 19

# PTP1B Inhib PTP1B. % Inhib (compound: CCCCCNC(=O)C(Cc1ccc(OC(COO)COO)cc1)NC(=O)C(CSCc1ccccc1)NC(=O)OC(C)(C)C (stereo not shown) ) is 16

# PTP1B Inhib PTP1B. % Inhib (compound: CCCCCNC(=O)C(Cc1ccc(OCCOO)c(COO)c1)NC(=O)C(Cc1ccc(O)cc1)NC(=O)OC(C)(C)C (stereo not shown) ) is 78

# PTP1B Inhib PTP1B. % Inhib (compound: CCCCCNC(=O)C(Cc1ccc(OC(COO)COO)cc1)NC(=O)N(Cc1ccccc1)Cc1ccccc1 (stereo not shown) ) is 59

In the following, a different compound is considered.
# PTP1B Inhib PTP1B. % Inhib (compound: CCCCCNC(=O)C(Cc1ccc(OCCOO)c(COO)c1)NC(=O)C(Cc1ccccc1)NC(=O)CCC(=O)O (stereo not shown) ) is 92

---

Target: human PTP1B (Homo sapiens, UniProt P18031)
Construct: human PTP1B (amino acid residues 1-321); made in house; host or cells: E. coli BL21(DE3)
Sequence (P18031 1-321): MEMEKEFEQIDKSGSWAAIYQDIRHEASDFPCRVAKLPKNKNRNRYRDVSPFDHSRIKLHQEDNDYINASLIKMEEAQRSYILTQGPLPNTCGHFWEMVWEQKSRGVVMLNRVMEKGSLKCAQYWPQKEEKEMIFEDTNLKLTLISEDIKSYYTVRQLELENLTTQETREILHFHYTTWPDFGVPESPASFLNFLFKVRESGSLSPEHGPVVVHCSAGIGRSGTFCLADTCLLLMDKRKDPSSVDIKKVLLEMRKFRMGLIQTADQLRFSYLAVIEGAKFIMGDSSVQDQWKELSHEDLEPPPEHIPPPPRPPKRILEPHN
Experiment: PTP1B assay, pNPP hydrolysis, assayed exactly as for PTP1
Assay type: biochemical
Details: Conc 100 uM, Table 2, read-out: PTP1B Inhib PTP1B. % Inhib
measured-quantity: inhibition at 100 µM (%)
Numbers only, in %.

Example compounds with recorded inhibition at 100 µM:
Hey, human PTP1B (Homo sapiens, UniProt P18031) data for CCCCCNC(=O)C(Cc1ccc(OC(COO)COO)cc1)NC(=O)C(Cc1ccccc1)NC(=O)CCN(CC)CC (stereo not shown) : inhibition at 100 µM came out at 92

Hey, human PTP1B (Homo sapiens, UniProt P18031) data for CCCCCNC(=O)C(Cc1ccc(OCCOO)c(COO)c1)NC(=O)C(Cc1ccc(O)cc1)NC(=O)OC(C)(C)C (stereo not shown) : inhibition at 100 µM came out at 97

Hey, human PTP1B (Homo sapiens, UniProt P18031) data for CCCCCNC(=O)C(Cc1ccc(OCCOO)c(COO)c1)NC(=O)C(Cc1ccccc1)NC(=O)CCNS(C)(=O)=O (stereo not shown) : inhibition at 100 µM came out at 95

In the following, a different compound is considered.
Hey, human PTP1B (Homo sapiens, UniProt P18031) data for CCCCCNC(=O)[C@H](Cc1ccc(OCC(=O)O)c(C(=O)O)c1)NC(=O)C(Cc1ccccc1)N1CCCC1=O (stereo partly shown) : inhibition at 100 µM came out at 94

---

Target: rat PTP1 (Rattus norvegicus, UniProt P20417)
Construct: a C-terminal truncation of rat PTP1 (amino acid residues 1-322); GST (N, cleaved yes); made in house; host or cells: E. coli strain TG-1 (pGEX-2T)
Sequence (P20417 1-322): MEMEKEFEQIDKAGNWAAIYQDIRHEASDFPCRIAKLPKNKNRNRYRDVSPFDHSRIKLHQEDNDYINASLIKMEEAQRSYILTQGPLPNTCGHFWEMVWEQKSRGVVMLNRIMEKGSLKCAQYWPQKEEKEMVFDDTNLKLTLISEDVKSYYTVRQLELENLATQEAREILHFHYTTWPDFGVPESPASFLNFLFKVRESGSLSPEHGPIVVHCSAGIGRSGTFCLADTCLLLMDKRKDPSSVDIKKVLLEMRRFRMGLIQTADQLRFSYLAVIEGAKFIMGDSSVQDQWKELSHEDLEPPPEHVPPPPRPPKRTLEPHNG
Test: PTP1 assay, pNPP hydrolysis (rate of change in A405)
Assay type: biochemical
Details: Conc 1 uM; pNPP hydrolysis; Table 1; read-out: PTP1 Inhib % Inhib
I'd be grateful if you could share measured inhibition at 1 µM for these entries.
One number for each entry, in %.

Example compounds with recorded inhibition at 1 µM:
Hey, rat PTP1 (Rattus norvegicus, UniProt P20417) data for `O=C(O)CCC(=O)N[C@@H](Cc1ccc(OC(C(=O)O)C(=O)O)cc1)C(=O)NCCN1CCCCC1` : inhibition at 1 µM came out at 0

Hey, rat PTP1 (Rattus norvegicus, UniProt P20417) data for CCCCCNC(=O)C(Cc1ccc(OC(COO)COO)cc1)NC(=O)Nc1ccc(C(=O)O)cc1 (stereo not drawn) : inhibition at 1 µM came out at 8

Items follow; give inhibition at 1 µM for each.
1. CCCCCNC(=O)C(Cc1ccc(OC(COO)COO)cc1)NC(=O)NCC(=O)O (stereo not drawn)
2. O=C(O)CCC(=O)N[C@@H](Cc1ccc(OC(C(=O)O)C(=O)O)cc1)C(=O)NCCc1ccc(O)cc1
3. CCOC(CNC(=O)[C@H](Cc1ccc(OC(C(=O)O)C(=O)O)cc1)NC(=O)CCC(=O)O)OCC

*A*
1: 4; 2: 1; 3: 0

Items follow; give inhibition at 1 µM for each.
1. CCCCCNC(=O)C(Cc1ccc(OC(COO)COO)cc1)NC(=O)NC(CCC(=O)O)C(=O)O (stereo not drawn)
2. CCCCCNC(=O)C(Cc1ccc(OCC(=O)O)c(COO)c1)NC(=O)CCC(=O)O (stereo not drawn)
3. CCCCCNC(=O)[C@H](Cc1ccc(OC(C(=O)O)C(=O)O)cc1)NC(=O)C1CC1C(=O)O (stereo partly drawn)

*A*
[17, 17, 0]

Hey, rat PTP1 (Rattus norvegicus, UniProt P20417) data for O=C(O)CCC(=O)NC(Cc1ccc(OC(COO)COO)cc1)C(=O)NCCCc1ccccc1 (stereo not drawn) : inhibition at 1 µM came out at 8

---

Target: rat PTP1 (Rattus norvegicus)
Construct: a C-terminal truncation of rat PTP1 (amino acid residues 1-322); GST (N, cleaved yes); made in house; host or cells: E. coli strain TG-1 (pGEX-2T)
Assay: PTP1 assay, pNPP hydrolysis (rate of change in A405)
Format: biochemical
Conditions: Conc 100 uM; pNPP hydrolysis; Table 1; read-out: PTP1 Inhib % Inhib
measured-quantity: inhibition at 100 µM (%)
Answers are plain numbers, in %.

# inhibition at 100 µM (compound: O=C(O)CCC(=O)NC(Cc1ccc(OC(COO)COO)cc1)C(=O)NCc1ccc(C(=O)O)cc1 (centres unmarked) ) is 56

# inhibition at 100 µM (compound: `CC(C)CCNC(=O)[C@H](Cc1ccc(OC(C(=O)O)C(=O)O)cc1)NC(=O)CCC(=O)O` ) is 48

# inhibition at 100 µM (compound: `CCCC[C@H](NC(=O)[C@H](Cc1ccc(OC(C(=O)O)C(=O)O)cc1)NC(=O)CCC(=O)O)C(N)=O` ) is 93

# inhibition at 100 µM (compound: CCCCCNC(=O)C(Cc1ccc(OC(COO)COO)cc1)NC(=O)N(CC(=O)O)Cc1ccc(OCc2ccccc2)cc1 (centres unmarked) ) is 90

# inhibition at 100 µM (compound: `CCCCCNC(=O)[C@H](Cc1ccc(OC(C(=O)O)C(=O)O)cc1)NC(=O)c1ccccc1C(=O)O` ) is 63

Items follow; give inhibition at 100 µM for each.
1. O=C(O)CCC(=O)NC(Cc1ccc(OC(COO)COO)cc1)C(=O)NCCOc1ccccc1 (centres unmarked)
2. O=C(O)CCC(=O)N[C@@H](Cc1ccc(OC(C(=O)O)C(=O)O)cc1)C(=O)NCCCn1ccnc1
3. CCCCCNC(=O)C(Cc1ccc(OC(COO)COO)cc1)NC(=O)C(Cc1ccc(C(=O)c2ccccc2)cc1)NC(=O)CCC(=O)O (centres unmarked) [drawing 133]
4. CCCCCNC(=O)[C@H](Cc1ccc(OC(C(=O)O)C(=O)O)cc1)NC(=O)CC1(CC(=O)O)CCCC1
5. CCCCCNC(=O)[C@H](Cc1ccc(OC(C(=O)O)C(=O)O)cc1)NC(=O)[C@@H]1CCCC[C@H]1C(=O)O
6. CCCCCNC(=O)C(Cc1ccc(OC(=CCOO)COO)cc1)NC(=O)CCC(=O)O (centres unmarked)
7. CCCCCNC(=O)C(Cc1ccc(OC(COO)COO)cc1)NC(=O)Nc1ccc(C(=O)O)cc1 (centres unmarked)
8. CCCCCNC(=O)[C@H](Cc1ccc(OC(C(=O)O)C(=O)O)cc1)NC(=O)COCC(=O)O

*A*
57
26
98
72
72
50
81
53

Items follow; give inhibition at 100 µM for each.
1. CCCCCNC(=O)C(Cc1ccc(OC(COO)COO)cc1)NC(=O)NCCCCCC(=O)O (centres unmarked)
2. CCCCCNC(=O)[C@H](Cc1ccc(OC(C(=O)O)C(=O)O)cc1)NC(=O)C(CC(=O)O)CC(=O)O
3. CCCCCNC(=O)[C@H](Cc1ccc(OC(C(=O)O)C(=O)O)cc1)NC(=O)C(CC(=O)O)NC(=O)CCC(=O)O (some centres unmarked)
4. CCCCCNC(=O)[C@H](Cc1ccc(OC(C(=O)O)C(=O)O)cc1)NC(=O)CCC(N)=O

*A*
1: 63; 2: 83; 3: 96; 4: 51

Taken from patent US6410585B1.
